Assignment: determine reported log10 Cmax for the given compounds.
# experimental protocol: Cmax in Han/Wistar rat at 3 mg/kg, po
# Type: ADME, organism-based
# Design: dose 3 mg/kg, route oral
# measurement context: in vivo
Parameter value (number): base-10 log of Cmax in ng/mL.

COC[C@H](O)Cn1cc(-c2ccc3c(c2)N(c2nc4c(s2)C(=O)NC(C)(C)C4)CCO3)cn1 :: 2.27
Cc1ccc(Nc2ccc3c(c2)N(c2nc4c(s2)C(=O)NC(C)(C)C4)CCO3)nn1 :: 2.02
CCn1nc(C)c(-c2ccc3c(c2)N(c2nc4c(s2)C(=O)NC(C)(C)C4)CCO3)c1C :: 2.14
CC(C)(O)Cn1cc(-c2ccc3c(c2)N(c2nc4c(s2)C(=O)NC(C)(C)C4)CCO3)cn1 :: 2.29
CC1(C)Cc2nc(N3CCOc4ccc(-c5cnn(Cc6ccccc6)c5)cc43)sc2C(=O)N1 :: 2.01
COCC(O)Cn1cc(-c2ccc3c(c2)N(c2nc4c(s2)C(=O)NC(C)(C)C4)CCO3)cn1 (configuration not stated) :: 2.20

[ask] Please give the measured log10 Cmax for this compound: `CC1(C)Cc2nc(N3CCOc4ccc(-c5ccc(N)nn5)cc43)sc2C(=O)N1`
[reply] 1.15

----------
# experimental protocol: Distribution coefficient, log D of the compound
# Format: physicochemical
# measurement context: octanol/water
Give measured logD for each item. Keep answers brief.
Numbers only.

Dear colleague, could you please provide logD for the compounds listed below?
1. Cc1nn(CCCN)cc1-c1ccc2c(c1)N(c1nc3c(s1)C(=O)NC(C)(C)C3)CCO2
2. CCn1nc(C)c(-c2ccc3c(c2)N(c2nc4c(s2)C(=O)NC(C)(C)C4)CCO3)c1C
3. Cc1n[nH]c(C)c1-c1ccc2c(c1)N(c1nc3c(s1)C(=O)NC(C)(C)C3)CCO2

[reply]
1: 0.38; 2: 3.57; 3: 3.04

Quick request: logD for each listed item, please.
1. COc1ccc(-c2ccc3c(c2)N(c2nc4c(s2)C(=O)NC(C)(C)C4)CCO3)nn1
2. COc1ccc(Nc2ccc3c(c2)N(c2nc4c(s2)C(=O)NC(C)(C)C4)CCO3)nn1
3. Cc1nn(CC(C)(C)O)c(C)c1-c1ccc2c(c1)N(c1nc3c(s1)C(=O)NC(C)(C)C3)CCO2
4. CN1CCN(c2ccc(-c3ccc4c(c3)N(c3nc5c(s3)C(=O)NC(C)(C)C5)CCO4)nn2)CC1
5. Cn1cc(-c2ccc3c(c2)N(c2nc4c(s2)C(=O)NC(C)(C)C4)CCO3)cn1

[reply]
[0.22, 2.74, 2.3, 1.75, 2.63]

[ask] Fill in the blank: the reported logD of `CCn1cc(-c2ccc3c(c2)N(c2nc4c(s2)C(=O)NC(C)(C)C4)CCO3)cn1` is ____.
[reply] 2.73

The measurements presented in this section are drawn from ChEMBL document CHEMBL1141705.
